tested on: COR-L 105; experiment: relative viability (nuclei count vs DMSO), 5 days (fraction); higher = more cells survive; conditions: first compound 0.4 µM
Kindly supply the reported relative viability values for the records listed here.

The following molecules have reported results that may help.
| molecule | subject_of_test | relative viability |
| --- | --- | --- |
| COc1cc(N2CCC(C(N)=O)CC2)ccc1Nc1nc(N)c(Cl)c(Nc2ccccc2S(=O)(=O)C(C)C)n1 [HG-5-88-01] + CCNC(=O)c1noc(-c2cc(C(C)C)c(O)cc2O)c1-c1ccc(CN2CCOCC2)cc1 [Luminespib] (partner 0.01 µM) | COR-L 105 | 0.851 |
| COc1cc(N2CCC(C(N)=O)CC2)ccc1Nc1nc(N)c(Cl)c(Nc2ccccc2S(=O)(=O)C(C)C)n1 [HG-5-88-01] + C[C@]1(O)C[C@@H](c2nc(-c3ccc4ccc(-c5ccccc5)nc4c3)c3c(N)nccn32)C1 [Linsitinib] (partner 1 µM) | COR-L 105 | 1.04 |
| COc1cc(N2CCC(C(N)=O)CC2)ccc1Nc1nc(N)c(Cl)c(Nc2ccccc2S(=O)(=O)C(C)C)n1 [HG-5-88-01] + O=C(CCCCCCC(=O)Nc1ccccc1)NO [Vorinostat] (partner 1 µM) | COR-L 105 | 0.847 |

Now for another entry.
Need relative viability, item COc1cc(N2CCC(C(N)=O)CC2)ccc1Nc1nc(N)c(Cl)c(Nc2ccccc2S(=O)(=O)C(C)C)n1 [HG-5-88-01] + Nc1ncn([C@H]2C[C@H](O)[C@@H](CO)O2)c(=O)n1 [Decitabine] (partner 2 µM)
0.628

----------
Please respond with reported relative viability for every item in the list.
test system: NCI-H358; assay: relative viability (nuclei count vs DMSO), 5 days (fraction); higher = more cells survive; details: first compound 1.265 µM

| compound | relative viability |
| --- | --- |
| COc1cc(N2CCC(C(N)=O)CC2)ccc1Nc1nc(N)c(Cl)c(Nc2ccccc2S(=O)(=O)C(C)C)n1 [HG-5-88-01] + O=C(CCCCCCC(=O)Nc1ccccc1)NO [Vorinostat] (partner 1 µM) | 0.155 |

Now consider the entry below.
# get_value(readout='relative viability', item= Clc1ccc(Nc2nnc(Cc3ccncc3)c3ccccc23)cc1 [Vatalanib] + COc1cc2c(Oc3ccc(NC(=O)C4(C(=O)Nc5ccc(F)cc5)CC4)cc3F)ccnc2cc1OCCCN1CCOCC1 [Foretinib] (partner 0.25 µM) )
0.718

----------
tested on: PC-14; assay: relative viability (nuclei count vs DMSO), 5 days (fraction); higher = more cells survive; conditions: first compound 0.04 µM
recorded_metric: relative viability
Numbers only.

These recorded examples may help you get a feel for the data.
| compound | subject_of_test | readout_value |
| --- | --- | --- |
| C[C@@H]1CN(CC(=O)Nc2ccc3c(c2)Cc2cccc(-c4cc(=O)cc(N5CCOCC5)o4)c2S3)C[C@H](C)O1 + O=C(CCCCCCC(=O)Nc1ccccc1)NO [Vorinostat] (partner 1 µM) | PC-14 | 0.75 |
| COc1cc(N2CCC(C(N)=O)CC2)ccc1Nc1nc(N)c(Cl)c(Nc2ccccc2S(=O)(=O)C(C)C)n1 [HG-5-88-01] + Cc1cc(Nc2cc(N3CCN(C)CC3)nc(Sc3ccc(NC(=O)C4CC4)cc3)n2)n[nH]1 [Tozasertib] (partner 0.1 µM) | PC-14 | 0.617 |
| C[C@@H]1CN(CC(=O)Nc2ccc3c(c2)Cc2cccc(-c4cc(=O)cc(N5CCOCC5)o4)c2S3)C[C@H](C)O1 + Cc1nc(NC(=O)N2CCC[C@H]2C(N)=O)sc1-c1ccnc(C(C)(C)C(F)(F)F)c1 [Alpelisib] (partner 2 µM) | PC-14 | 0.961 |

Need relative viability for each of these compounds.
1. Clc1ccc(Nc2nnc(Cc3ccncc3)c3ccccc23)cc1 [Vatalanib] + CC(=O)Nc1cccc(-n2c(=O)n(C3CC3)c(=O)c3c(Nc4ccc(I)cc4F)n(C)c(=O)c(C)c32)c1 [Trametinib] (partner 0.02 µM)
2. COc1cc(N2CCC(C(N)=O)CC2)ccc1Nc1nc(N)c(Cl)c(Nc2ccccc2S(=O)(=O)C(C)C)n1 [HG-5-88-01] + N=C(N)NC(=N)NCCc1ccccc1 [Phenformin] (partner 250 µM)
3. COc1cc(N2CCC(C(N)=O)CC2)ccc1Nc1nc(N)c(Cl)c(Nc2ccccc2S(=O)(=O)C(C)C)n1 [HG-5-88-01] + CC(=O)c1c(C)c2cnc(Nc3ccc(N4CCNCC4)cn3)nc2n(C2CCCC2)c1=O [Palbociclib] (partner 0.5 µM)

1. 0.671
2. 0.65
3. 0.545

Quick request: relative viability for each listed item, please.
1. C[C@@H]1CN(CC(=O)Nc2ccc3c(c2)Cc2cccc(-c4cc(=O)cc(N5CCOCC5)o4)c2S3)C[C@H](C)O1 + Cc1nc(Nc2ncc(C(=O)Nc3c(C)cccc3Cl)s2)cc(N2CCN(CCO)CC2)n1 [Dasatinib] (partner 0.075 µM)
2. COc1cc(N2CCC(C(N)=O)CC2)ccc1Nc1nc(N)c(Cl)c(Nc2ccccc2S(=O)(=O)C(C)C)n1 [HG-5-88-01] + C[C@]1(O)C[C@@H](c2nc(-c3ccc4ccc(-c5ccccc5)nc4c3)c3c(N)nccn32)C1 [Linsitinib] (partner 1 µM)

0.286
0.977

----------
test system: NCI-H661; experiment: relative viability (nuclei count vs DMSO), 5 days (fraction); higher = more cells survive; conditions: first compound 0.1265 µM
recorded_metric: relative viability
One number for each entry.

| molecule | recorded_metric | readout_value |
| --- | --- | --- |
| C[C@@H]1CN(CC(=O)Nc2ccc3c(c2)Cc2cccc(-c4cc(=O)cc(N5CCOCC5)o4)c2S3)C[C@H](C)O1 + CC(C)C[C@H](NC(=O)[C@H](Cc1ccccc1)NC(=O)c1cnccn1)B(O)O [Bortezomib] (partner 0.002 µM) | relative viability | 0.798 |
| COc1cc(N2CCC(C(N)=O)CC2)ccc1Nc1nc(N)c(Cl)c(Nc2ccccc2S(=O)(=O)C(C)C)n1 [HG-5-88-01] + O=C(CCCCCCC(=O)Nc1ccccc1)NO [Vorinostat] (partner 1 µM) | relative viability | 0.791 |
| Clc1ccc(Nc2nnc(Cc3ccncc3)c3ccccc23)cc1 [Vatalanib] + CS(=O)(=O)N1CCN(Cc2cc3nc(-c4cccc5[nH]ncc45)nc(N4CCOCC4)c3s2)CC1 [Pictilisib] (partner 1 µM) | relative viability | 0.378 |
| Clc1ccc(Nc2nnc(Cc3ccncc3)c3ccccc23)cc1 [Vatalanib] + Nc1nc2[nH]cc(CCc3ccc(C(=O)N[C@@H](CCC(=O)O)C(=O)O)cc3)c2c(=O)[nH]1 [Pemetrexed] (partner 0.2 µM) | relative viability | 0.906 |
| C[C@@H]1CN(CC(=O)Nc2ccc3c(c2)Cc2cccc(-c4cc(=O)cc(N5CCOCC5)o4)c2S3)C[C@H](C)O1 + O=C(c1cc(Cc2n[nH]c(=O)c3ccccc23)ccc1F)N1CCN(C(=O)C2CC2)CC1 [Olaparib] (partner 8 µM) | relative viability | 0.77 |
| C[C@@H]1CN(CC(=O)Nc2ccc3c(c2)Cc2cccc(-c4cc(=O)cc(N5CCOCC5)o4)c2S3)C[C@H](C)O1 + Nc1ncn([C@H]2C[C@H](O)[C@@H](CO)O2)c(=O)n1 [Decitabine] (partner 2 µM) | relative viability | 0.534 |
| COc1cc(N2CCC(C(N)=O)CC2)ccc1Nc1nc(N)c(Cl)c(Nc2ccccc2S(=O)(=O)C(C)C)n1 [HG-5-88-01] + CS(=O)(=O)CCNCc1ccc(-c2ccc3ncnc(Nc4ccc(OCc5cccc(F)c5)c(Cl)c4)c3c2)o1 [Lapatinib] (partner 2 µM) | relative viability | 0.518 |

Report relative viability for Clc1ccc(Nc2nnc(Cc3ccncc3)c3ccccc23)cc1 [Vatalanib] + N=C(N)NC(=N)NCCc1ccccc1 [Phenformin] (partner 250 µM) please.
0.248

----------
Kindly state relative viability for each of the entries shown.
tested on: NCI-H596; experiment: relative viability (nuclei count vs DMSO), 5 days (fraction); higher = more cells survive; conditions: first compound 0.01 µM
Answers are plain numbers.

The examples below pair each entry with its known result.
| molecule | subject_of_test | relative viability |
| --- | --- | --- |
| CC(C)Oc1cc(Nc2nc(N[C@@H](C)c3ccc(F)cn3)ncc2Cl)n[nH]1 [AZ23] + CC(C)C[C@H](NC(=O)[C@H](Cc1ccccc1)NC(=O)c1cnccn1)B(O)O [Bortezomib] (partner 0.002 µM) | NCI-H596 | 1.17 |
| CC(C)Oc1cc(Nc2nc(N[C@@H](C)c3ccc(F)cn3)ncc2Cl)n[nH]1 [AZ23] + CCNC(=O)c1noc(-c2cc(C(C)C)c(O)cc2O)c1-c1ccc(CN2CCOCC2)cc1 [Luminespib] (partner 0.01 µM) | NCI-H596 | 1.13 |
| CC(C)Oc1cc(Nc2nc(N[C@@H](C)c3ccc(F)cn3)ncc2Cl)n[nH]1 [AZ23] + N=C(N)NC(=N)NCCc1ccccc1 [Phenformin] (partner 250 µM) | NCI-H596 | 0.787 |
| CC(C)Oc1cc(Nc2nc(N[C@@H](C)c3ccc(F)cn3)ncc2Cl)n[nH]1 [AZ23] + Cc1nc(Nc2ncc(C(=O)Nc3c(C)cccc3Cl)s2)cc(N2CCN(CCO)CC2)n1 [Dasatinib] (partner 0.075 µM) | NCI-H596 | 0.52 |
| CC(C)Oc1cc(Nc2nc(N[C@@H](C)c3ccc(F)cn3)ncc2Cl)n[nH]1 [AZ23] + Cc1cc(Nc2cc(N3CCN(C)CC3)nc(Sc3ccc(NC(=O)C4CC4)cc3)n2)n[nH]1 [Tozasertib] (partner 0.1 µM) | NCI-H596 | 1 |

Quick one: give me relative viability for each item below, same order please.
1. CC(C)Oc1cc(Nc2nc(N[C@@H](C)c3ccc(F)cn3)ncc2Cl)n[nH]1 [AZ23] + Cc1nc(NC(=O)N2CCC[C@H]2C(N)=O)sc1-c1ccnc(C(C)(C)C(F)(F)F)c1 [Alpelisib] (partner 2 µM)
2. CC(C)Oc1cc(Nc2nc(N[C@@H](C)c3ccc(F)cn3)ncc2Cl)n[nH]1 [AZ23] + Nc1nc2[nH]cc(CCc3ccc(C(=O)N[C@@H](CCC(=O)O)C(=O)O)cc3)c2c(=O)[nH]1 [Pemetrexed] (partner 0.2 µM)

1. 0.51
2. 0.422

Consider the molecule CC(C)Oc1cc(Nc2nc(N[C@@H](C)c3ccc(F)cn3)ncc2Cl)n[nH]1 [AZ23] + CS(=O)(=O)CCNCc1ccc(-c2ccc3ncnc(Nc4ccc(OCc5cccc(F)c5)c(Cl)c4)c3c2)o1 [Lapatinib] (partner 2 µM) and give its measured relative viability.
1.03
